B1: OR4K15 (parent)
chain: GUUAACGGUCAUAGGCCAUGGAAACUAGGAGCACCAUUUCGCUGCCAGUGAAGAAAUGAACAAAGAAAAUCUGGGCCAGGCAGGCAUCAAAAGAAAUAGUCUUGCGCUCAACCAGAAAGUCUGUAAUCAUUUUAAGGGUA

# Variants of: B1
# assay-explanation: self-cleavage, relative activity (ratio to wild type); higher = more cleavage; in vitro, sequencing; the parent is a self-cleaving ribozyme
quantity-kind: self-cleavage
Lab note: record the figure alone, no unit after it.

Worked cases, self-cleavage given:
mutations: A23U G137A
recorded-result: 1.46
//
mutations: A96G U103G
recorded-result: 0.03
//
mutations: A91G U127A
recorded-result: 2.67
//
mutations: A60U U124C
recorded-result: 0.94
//
mutations: A30G C101A
recorded-result: 0.14

Q: Fill in the blank: the reported self-cleavage of U26C U132A is ____.
Result: 0.61

The reported measurements were obtained from the RNAGym collection of RNA variant scans (doi:10.7554/elife.90254).
